Tested on: OVCAR-8 ovarian
Test: NCI-60 one-dose screen, 48 h
Conditions: 10 µM unless noted
About 83,000 compounds went through this panel and 20% of them were active in at least one assay; those are over-represented in the sample as a whole. Active and inactive are the calls of the source. How the source made its calls: active means growth percent below 10; inactive means the rest.
Outcome codes: active, inactive

{"columns": ["Compound", "Study system", "Label class"],
 "data": [
  ["NS(=O)(=O)c1ccc(C(=O)N/N=C(\\CS(=O)(=O)c2ccccc2)c2cc3cc(Br)ccc3o2)cc1", "OVCAR-8 ovarian", "inactive"],
  ["O=C(COc1ccc(/C=C2\\CSc3ccccc3C2=O)cc1)c1ccc(Cl)cc1", "OVCAR-8 ovarian", "inactive"],
  ["O=c1[nH]c(=S)[nH]c(=O)n1Cc1cccc2ccccc12", "OVCAR-8 ovarian", "inactive"],
  ["O=c1[nH]c(-c2ccccn2)nc2sc3c(c12)CCCCCC3", "OVCAR-8 ovarian", "inactive"],
  ["CCCCCCCC/C=C\\CCCCCCCCOc1cccc(CC(=O)NCC[N+]2(C)CCCC2)c1", "OVCAR-8 ovarian", "inactive"],
  ["CCOC(=O)C(CC(c1ccccc1)N1CCCCC1)[N+](=O)[O-] (stereo not given)", "OVCAR-8 ovarian", "inactive"],
  ["Brc1ccccc1Nc1ccc2nnc(-c3ccncc3)n2n1", "OVCAR-8 ovarian", "inactive"],
  ["COc1ccc(/C=N/NC(=O)c2cnn3c2NC(c2ccccc2)C3)cc1OC1CCCC1 (stereo not given)", "OVCAR-8 ovarian", "inactive"],
  ["Oc1ccc2ccccc2c1C1NN=C(c2ccccc2)S1 (stereo not given)", "OVCAR-8 ovarian", "inactive"],
  ["Cc1ccc2c(c1)c(Sc1ccc(C(=O)NO)cc1)c1n2CN(C)CC1", "OVCAR-8 ovarian", "active"]
]}

====

System: NCI-H23 lung
Assay: NCI-60 one-dose screen, 48 h
Settings: 10 µM unless noted
Compounds without any hit were thinned out: in the full panel of roughly 83,000, 20% have a hit. Active and inactive are the calls of the source. The calls were made as follows: active = growth percent below 10; inactive = the rest.
Classes used: active, inactive

{"columns": ["Molecule", "Label class"],
 "data": [
  ["Clc1ccccc1Nc1ccc2nnc(-c3ccncc3)n2n1", "inactive"],
  ["CC[Si](CC)(CC)OC1[C@@H](O[Si](CC)(CC)CC)[C@@H](CNC(=O)NC)O[C@H]1n1cnc2c(NC(=O)Nc3ccccc3)ncnc21 (some centres undefined)", "inactive"],
  ["Fc1ccccc1Nc1ccc2nnc(-c3ccncc3)n2n1", "inactive"],
  ["COc1cc(-c2nc(Nc3nc4ccccc4[nH]3)nc(N)c2C#N)cc(OC)c1OC", "inactive"],
  ["CCCN1CCN(c2ccc3nc(-c4ccc5nc(-c6ccc(C(F)(F)F)cc6)[nH]c5c4)[nH]c3c2)CC1", "active"],
  ["O=C(NCc1ccco1)C1CCN(S(=O)(=O)c2ccc(Cl)cc2)CC1", "inactive"],
  ["O=S(=O)(Nc1ncccn1)c1ccc(Nc2ccc3nnc(-c4ccncc4)n3n2)cc1", "inactive"],
  ["O=C1NC(=O)C(CSc2ccccc2)(c2ccccc2)N1 (centres undefined)", "inactive"],
  ["CCCCc1ccc(NC(=O)C(F)(F)F)cc1", "inactive"],
  ["COc1ccc(C2SC(C)C(=O)N2CCc2cccs2)cc1OC (centres undefined)", "inactive"],
  ["COc1ccccc1CNCCCCCCCCCCCCN1C(=O)c2ccc3c4c(ccc(c24)C1=O)C(=O)N(CCCCCCCCCCCCNCc1ccccc1OC)C3=O", "active"],
  ["COC(=O)[C@@]12CC[C@@H](C)[C@]3(C[C@@H](c4ccoc4)OC3=O)[C@H]1CC[C@@H]1O[C@@]12C", "inactive"],
  ["C=C[C@H]1C[C@@H]2C[C@@H]3[C@H]4C/C=C\\C(=O)NCCCC5NC(=O)C(=C(O)/C=C/[C@@H]4CC(=O)[C@H]3[C@@H]2[C@H]1C)C5=O (some centres undefined)", "active"],
  ["CS(=O)(=O)Nc1cccc(C(=O)NCc2ccc(N3CCOCC3)cc2)c1", "inactive"],
  ["c1ccc2cc(Cn3c(-c4ccc5ccccc5c4)[n+](Cc4ccc5ccccc5c4)c4ccccc43)ccc2c1", "active"],
  ["O=C1NC(=S)S/C1=C\\c1cccc([N+](=O)[O-])c1", "inactive"],
  ["Cc1ccc(N=c2nc3sc4c(C)ccc(C)c4n3c(N)c2C#N)cc1", "inactive"],
  ["Cc1ccccc1-n1nnc(C(=O)Nc2nc(-c3ccccc3)c(-c3ccccc3)s2)c1C", "inactive"],
  ["O=c1oc2ccccc2cc1-c1csc(N=Nc2c(O)[nH]c3ccc(Cl)cc23)n1", "inactive"]
]}
